- System: PIK3CA (human)
pIC50: −log10 of the molar value.
pIC50 reference
Measurement Name: pIC50

{"Smiles Text": "O=C(Nc1ccncc1)Nc1ccc(-c2nc3c(c(N4C5CCC4COC5)n2)CCN(CC(F)(F)F)C3)cc1", "Measurement Name": "pIC50", "Reported Value": 5.77}
{"Smiles Text": "CN(C)C1CCN(C(=O)c2ccc(NC(=O)Nc3ccc(-c4nc5c(c(N6C7CCC6COC7)n4)CCNC5)cc3)cc2)CC1", "Measurement Name": "pIC50", "Reported Value": 6.49}
{"Smiles Text": "O=C(Nc1ccncc1)Nc1ccc(-c2nc3c(c(N4CC5CCC(C4)O5)n2)CCN(CCF)C3)cc1", "Measurement Name": "pIC50", "Reported Value": 6.48}
{"Smiles Text": "CNC(=O)Nc1ccc(-c2nc3c(c(N4CC5CCC(C4)O5)n2)CCNC3)cc1", "Measurement Name": "pIC50", "Reported Value": 5.57}
{"Smiles Text": "CCN1CCc2c(nc(-c3ccc(NC(=O)Nc4ccc(C(=O)OC)cc4)cc3)nc2N2C3CCC2COC3)C1", "Measurement Name": "pIC50", "Reported Value": 5.89}
{"Smiles Text": "CCN1CCc2c(nc(-c3ccc(NC(=O)Nc4ccc(N5CCN(C)CC5)cc4)cc3)nc2N2C3CCC2COC3)C1", "Measurement Name": "pIC50", "Reported Value": 5.72}
{"Smiles Text": "CNC(=O)Nc1ccc(-c2nc3c(c(N4C5CCC4COC5)n2)CCNC3)cc1", "Measurement Name": "pIC50", "Reported Value": 5.42}
{"Smiles Text": "O=C(Nc1ccc(-c2nc3c(c(N4C5CCC4COC5)n2)CCNC3)cc1)Nc1cccnc1", "Measurement Name": "pIC50", "Reported Value": 5.75}
{"Smiles Text": "CN(C)C1CCN(C(=O)c2ccc(NC(=O)Nc3ccc(-c4nc5c(c(N6CCOCC6)n4)CCNC5)cc3)cc2)CC1", "Measurement Name": "pIC50", "Reported Value": 7.51}
{"Smiles Text": "CN1CCc2c(nc(-c3ccc(NC(=O)Nc4ccncc4)cc3)nc2N2C3CCC2COC3)C1", "Measurement Name": "pIC50", "Reported Value": 5.56}
{"Smiles Text": "CS(=O)(=O)N1Cc2nc(-c3ccc(NC(=O)Nc4cccnc4)cc3)nc(N3C4CCC3COC4)c2C1", "Measurement Name": "pIC50", "Reported Value": 6.14}
{"Smiles Text": "CCN1CCc2c(nc(-c3ccc(NC(=O)NC4CC4)cc3)nc2N2C3CCC2COC3)C1", "Measurement Name": "pIC50", "Reported Value": 5.31}
{"Smiles Text": "CCN1CCc2c(nc(-c3ccc(NC(=O)NCCF)cc3)nc2N2C3CCC2COC3)C1", "Measurement Name": "pIC50", "Reported Value": 5.24}
{"Smiles Text": "CCN1CCc2c(nc(-c3ccc(NC(=O)Nc4ccc(C(=O)N(C)C)cc4)cc3)nc2N2C3CCC2COC3)C1", "Measurement Name": "pIC50", "Reported Value": 6.26}
{"Smiles Text": "CS(=O)(=O)N1Cc2nc(-c3ccc(NC(=O)Nc4cccnc4)cc3)nc(N3CCOCC3)c2C1", "Measurement Name": "pIC50", "Reported Value": 7.35}
{"Smiles Text": "CC(C)N1CCc2c(nc(-c3ccc(NC(=O)Nc4ccncc4)cc3)nc2N2CC3CCC(C2)O3)C1", "Measurement Name": "pIC50", "Reported Value": 5.69}
{"Smiles Text": "O=C(Nc1ccncc1)Nc1ccc(-c2nc3c(c(N4C5CCC4COC5)n2)CC[N+](CCF)(CCF)C3)cc1", "Measurement Name": "pIC50", "Reported Value": 5.73}
{"Smiles Text": "CN1CCc2c(nc(-c3ccc(NC(=O)Nc4cccnc4)cc3)nc2N2CC3CCC(C2)O3)C1", "Measurement Name": "pIC50", "Reported Value": 6.17}
{"Smiles Text": "CN(C)C1CCN(C(=O)c2ccc(NC(=O)Nc3ccc(-c4nc5c(c(N6CC7CCC(C6)O7)n4)CCNC5)cc3)cc2)CC1", "Measurement Name": "pIC50", "Reported Value": 5.95}
{"Smiles Text": "CN1CCN(c2ccc(NC(=O)Nc3ccc(-c4nc5c(c(N6C7CCC6COC7)n4)CCN(CC(F)(F)F)C5)cc3)cc2)CC1", "Measurement Name": "pIC50", "Reported Value": 5.87}
{"Smiles Text": "O=C(Nc1ccc(-c2nc3c(c(N4CCOCC4)n2)CCNC3)cc1)Nc1cccnc1", "Measurement Name": "pIC50", "Reported Value": 7.18}
{"Smiles Text": "CCN1CCc2c(nc(-c3ccc(NC(=O)Nc4ccc(C(=O)NC(C)C)cc4)cc3)nc2N2C3CCC2COC3)C1", "Measurement Name": "pIC50", "Reported Value": 6.28}
{"Smiles Text": "CNC(=O)Nc1ccc(-c2nc3c(c(N4CC5CCC(C4)O5)n2)CCN(S(C)(=O)=O)C3)cc1", "Measurement Name": "pIC50", "Reported Value": 6.25}
{"Smiles Text": "CCN1CCc2c(nc(-c3ccc(NC(=O)Nc4ccc(C(=O)N5CCCC5)cc4)cc3)nc2N2C3CCC2COC3)C1", "Measurement Name": "pIC50", "Reported Value": 6.66}
{"Smiles Text": "CN1CCc2c(nc(-c3ccc(NC(=O)Nc4cccnc4)cc3)nc2N2CCOCC2)C1", "Measurement Name": "pIC50", "Reported Value": 6.95}
{"Smiles Text": "CN(C)C1CCN(C(=O)c2ccc(NC(=O)Nc3ccc(-c4nc5c(c(N6C7CCC6COC7)n4)CCN(S(C)(=O)=O)C5)cc3)cc2)CC1", "Measurement Name": "pIC50", "Reported Value": 5.88}
{"Smiles Text": "CN(C)C1CCN(C(=O)c2ccc(NC(=O)Nc3ccc(-c4nc5c(c(N6CC7CCC(C6)O7)n4)CNC5)cc3)cc2)CC1", "Measurement Name": "pIC50", "Reported Value": 6.96}
{"Smiles Text": "COCCN1CCc2c(nc(-c3ccc(NC(=O)Nc4ccncc4)cc3)nc2N2CC3CCC(C2)O3)C1", "Measurement Name": "pIC50", "Reported Value": 7.00}
{"Smiles Text": "CCN1CCc2c(nc(-c3ccc(NC(=O)Nc4ccccc4)cc3)nc2N2C3CCC2COC3)C1", "Measurement Name": "pIC50", "Reported Value": 6.04}
{"Smiles Text": "CCN1CCc2c(nc(-c3ccc(NC(=O)Nc4ccc(CN5CCCC5)cc4)cc3)nc2N2C3CCC2COC3)C1", "Measurement Name": "pIC50", "Reported Value": 6.13}
{"Smiles Text": "O=C(Nc1ccc(-c2nc3c(c(N4CC5CCC(C4)O5)n2)CNC3)cc1)Nc1cccnc1", "Measurement Name": "pIC50", "Reported Value": 7.23}
{"Smiles Text": "CS(=O)(=O)N1CCc2c(nc(-c3ccc(NC(=O)Nc4cccnc4)cc3)nc2N2CCOCC2)C1", "Measurement Name": "pIC50", "Reported Value": 8.46}

Reference source: the Kinase Knowledgebase extract (Sharma et al. 2016)
